Where do the numbers come from? From patent US11419945B2.

- target_entity: Cyno in house BCMA
- Sequence (as listed by the source): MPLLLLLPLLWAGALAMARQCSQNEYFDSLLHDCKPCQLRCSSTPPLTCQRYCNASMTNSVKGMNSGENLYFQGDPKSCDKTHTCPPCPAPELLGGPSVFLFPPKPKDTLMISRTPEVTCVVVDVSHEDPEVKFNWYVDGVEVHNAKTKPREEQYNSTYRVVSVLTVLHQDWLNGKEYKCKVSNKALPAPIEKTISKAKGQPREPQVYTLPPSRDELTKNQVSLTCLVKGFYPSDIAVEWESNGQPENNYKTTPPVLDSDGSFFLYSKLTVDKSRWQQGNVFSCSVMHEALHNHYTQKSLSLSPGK
- test_name: ProteOn analysis of CA8 chimeric and humanised constructs, cyno in house BCMA
- Format: binding
- reported_conditions: Run 1, Cyno in house BCMA, 25° C., in s-1 (unit assumed)
readout_type: kd
Would you mind answering with just the numeric figure?

molecule CA8 humanised J5M2: humanised CA8 anti-BCMA antibody, VH J5 (SEQ ID NO:21) + VL M2 (SEQ ID NO:35) (antibody, V domains shown, Humansed antibody sequence) VH: QVQLVQSGAEVKKPGSSVKVSCKGSGYTFTNYWMHWVRQAPGQGLEWMGATYRGHSDTYYNQKFKGRVTITADTSTSTAYMELSSLRSEDTAVYYCTRGAIYDGYDVLDNWGQGTLVTVSS VL: DIQLTQSPSSLSASVGDRVTITCSASQDISNYLNWYQQKPGKAPELVIYYTSNLHSGVPSRFSGSGSGTDYTLTISSLQPEDFATYYCQQYRKLPWTFGQGTKLEIKR , kd observed: 4.70E−05

Per the records, this molecule ( CA8 humanised J0M2: humanised CA8 anti-BCMA antibody, VH J0 (SEQ ID NO:11) + VL M2 (SEQ ID NO:35) (antibody, V domains shown, Humansed antibody sequence) VH: QVQLVQSGAEVKKPGSSVKVSCKASGGTFSNYWMHWVRQAPGQGLEWMGATYRGHSDTYYNQKFKGRVTITADKSTSTAYMELSSLRSEDTAVYYCARGAIYNGYDVLDNWGQGTLVTVSS VL: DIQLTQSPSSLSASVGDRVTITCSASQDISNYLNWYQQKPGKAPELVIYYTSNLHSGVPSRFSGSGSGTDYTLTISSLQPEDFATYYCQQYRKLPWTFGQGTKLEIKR ) has kd equal to 1.84E−04
